- target.or.system: Recombinant human his-tagged IGF R extracellular domain protein (human) (UniProt P08069)
- experiment.summary: SPR, Ab captured via anti-huIgG Fc, pH 7.4
recorded.metric: kon (M⁻¹ s⁻¹)
Reply with just the number (in M⁻¹ s⁻¹).

binder	result.unit	kon
VRDN-02033 (antibody, V domains shown) VH: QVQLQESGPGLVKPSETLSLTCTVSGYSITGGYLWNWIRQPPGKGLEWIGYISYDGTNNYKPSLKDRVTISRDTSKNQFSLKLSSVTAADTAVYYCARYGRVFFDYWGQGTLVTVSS VL: DIVMTQSPLSLPVTPGEPASISCRSSQHIVHSNGNTYLQWYLQKPGQSPQLLIYKVSNRLYGVPDRFSGSGSGTDFTLKISRVEAEDVGVYYCFQGSHVPWTFGQGTKVEIK	M⁻¹ s⁻¹	98500
VRDN-02075 (antibody, V domains shown) VH: QVQLQESGPGLVKPSETLSLTCTVSGYSITGGYLWNWIRQPPGKGLEWIGYISYHGTNNYKPSLKDRVTISRDTSKNQFSLKLSSVTAADTAVYYCARHGRVFFDYWGQGTLVTVSS VL: DIVMTQSPLSLPVTPGEPASISCRSHQSIVHSNGNTYLQWYLQKPGQSPQLLIYKVSNRLYGVPDRFSGSGSGTDFTLKISRVEAEDVGVYYCFQGSHVHWTFGQGTKVEIK	M⁻¹ s⁻¹	116000

Pending binder:
Kindly note the recorded kon for VRDN-02024 (antibody, V domains shown) VH: QVQLQESGPGLVKPSETLSLTCTVSGYSITGGYLWNWIRQPPGKGLEWIGYISYDGTNNYKPSLKDRVTISRDTSKNQFSLKLSSVTAADTAVYYCARYGRHFFDYWGQGTLVTVSS VL: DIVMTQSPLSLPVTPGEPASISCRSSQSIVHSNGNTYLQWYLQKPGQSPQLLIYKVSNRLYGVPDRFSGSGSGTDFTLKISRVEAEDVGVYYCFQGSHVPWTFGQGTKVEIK , which is 113000
